For each record, write down the corresponding Ki.
- TARGET UNDER TEST: wt-PAH (Homo sapiens)
- Construct: made in house; host or cells: E. coli
- Sequence (P00439 whole entry): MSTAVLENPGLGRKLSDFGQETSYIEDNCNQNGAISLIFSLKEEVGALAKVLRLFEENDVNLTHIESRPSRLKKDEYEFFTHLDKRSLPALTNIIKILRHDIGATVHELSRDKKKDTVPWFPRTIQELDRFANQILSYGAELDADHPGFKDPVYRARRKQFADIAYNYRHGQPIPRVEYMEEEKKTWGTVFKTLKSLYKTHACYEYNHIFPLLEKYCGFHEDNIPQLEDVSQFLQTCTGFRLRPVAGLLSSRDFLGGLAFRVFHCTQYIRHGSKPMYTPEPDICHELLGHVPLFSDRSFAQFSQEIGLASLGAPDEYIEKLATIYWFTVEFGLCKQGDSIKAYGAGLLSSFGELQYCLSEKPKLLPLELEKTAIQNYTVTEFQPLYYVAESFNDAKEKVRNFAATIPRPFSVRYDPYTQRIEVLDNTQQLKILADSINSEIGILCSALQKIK
- METHOD DESCRIPTION: Enzyme kinetic analysis of recombinant PAH activity
- Format: biochemical
- MEASUREMENT SETUP: using standard equations for competitive inhibition; read-out: Kl vs BH4 (competitive inhibition)

| COMPOUND | Ki |
| --- | --- |
| Cc1ccnc(-n2c(=S)[nH]c3sc(C)c(C)c3c2=O)c1 [Compound 13] | ~200 µM |

Data request, read-out Ki, for Cc1onc(-c2ccccc2)c1-c1n[nH]c(N)c1C#N [Compound 5]
~500 µM
